system-under-test: pooled human IgG (human IgG1,2,3 and 4)
Threshold check on Enzyme Activity Endpoint Assay: Fc: at or above 300 ng/µL gives true, strictly below gives false.

>>> class("PRT-173 (protein) MANQEIRYSEVTPYHVTSVWTKGVTPPANFTQGEDVFHAPYVANQGWYDITKTFNGKDDLLCGAATAGNMLHWWFDQNKDQIKRYLEEHPEKQKINFNGEQMFDVKEAIDTKNHQLDSKLFEYFKEKAFPYLSTKHLGVFPDHVIDMFINGYRLSLTNHGPTPVKEGSKDPRGGIFDAVFTRGDQSKLLTSRHDFKEKNLKEISDLIKKELTEGKALGLSHTYANVRINHVINLWGADFDSNGNLKAIYVTDSDSNASIGMKKYFVGKNASGKVAISAKEIEGENIGAQVLGLFTLSTGQDSWNQTN")
"false"

query: Can PRT-268 (protein) MVTSVWTKGVTPPTDFIYGEDVLHAPYKAGQGWYDITKLFNGKDDLLCGAATAGNMLHWWFDQNKEQIENYLKKHPEKQKINFNGEQMFDVKEAIDTKDSQLDSKLFDYFKEKAFPNLSTKHLGVFPDHVIDMFINGYRLSLLNHGPTPVKRGSKDPRGGIFDAVFTRGDQSKLLTNRHDLKNKTLKEISDLIKQELTEGKALGISHTYANGRINHVINLWGADFDAEGNLEAIYVTDSDSNPSIGMKKYFVGVNSSGKVAISAKEIEEDNIGAQVLGLFTLSTGQDIWNQTN be said to have Enzyme Activity Endpoint Assay: Fc at or above 300 ng/µL?
result: true

query: Same for PRT-184 (protein) MANQEIRYSEVTPYHVTSVWTKGVTPPANFTQGEDVFHAPYVANQGWYDITKTFNGKDDLLCGAATAGNMLHWWFDQNKDQIKRYLEEHPEKQKINFNGEQMFDVKEAIDTKNHQLDSKLFEYFKEKAFPYLSTKHLGVFPDHVIDMFINGYRLSLTNHGPTPVKEGSKDPRGGIFDAVFTRGDQSKLLTSRHDFKEKNLKEISDLIKKELTEGKALGLSHTYANVRINHVINLWGADFDSNGNLKAIYVTDSDSNASIGMKKYFVGVNSAGKVAISAKEIKEDNIGAQVLGLFTLSTGQDSWQKLS
result: false
